Target: T1, cynomolgus BDCA2 (cynomolgus monkey, UniProt A0A2K5UWP4 1-212)
T1 construct: whole, on cells; also called Cyno BDCA2; cynoBDCA2
T1 sequence: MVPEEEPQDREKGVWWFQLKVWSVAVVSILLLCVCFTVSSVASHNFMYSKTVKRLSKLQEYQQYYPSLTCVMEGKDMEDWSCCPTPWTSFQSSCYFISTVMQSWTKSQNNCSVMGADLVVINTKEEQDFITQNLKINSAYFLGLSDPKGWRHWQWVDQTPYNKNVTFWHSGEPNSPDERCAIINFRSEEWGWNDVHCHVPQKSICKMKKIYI
Assay: FACS, 293F-cynoBDCA2 cells
endpoint_name: binding result

Hu005-07 (antibody, IgG1, V domains shown, Humanized IgG1; also called hu005-07(BM5)) VH: QVQLQESGPGLVKPSETLSLTCTVSGGSITNYGVHWIRQPPGKGLEWIGVIWSGESTDYDAAFISRVTISKDNSKNQVSLKLSSVTAADTAVYYCARRRSHYYGYVMDYWGQGTTVTVSS VL: DIVLTQSPASLAVSPGQRATITCKASQSIDYDAIGYLNWYQHKPGQPPKLLIYAASNLESGVPARFSGSGSGTDFTLTINPVEANDTANYYCQQSNEDPPTFGQGTKLEIK | binds
